Details: 308.15 K; 100.7 kPa; Liquid; Vibrating tube method
// mass density lookup, one value per entry
observation.type: mass density (kg/m3)

# molecule, reported.value
records = [
    ("C1CCOC1 [tetrahydrofuran]", 872.279),
    ("CCCCn1cc[n+](C)c1.F[P-](F)(F)(F)(F)F [1-butyl-3-methylimidazolium hexafluorophosphate]", 1357.86),
    ("CCCCCCCC[n+]1ccn(C)c1.F[P-](F)(F)(F)(F)F [1-octyl-3-methylimidazolium hexafluorophosphate]", 1227.09),
    ("CCCCCCn1cc[n+](C)c1.F[P-](F)(F)(F)(F)F [1-hexyl-3-methylimidazolium hexafluorophosphate]", 1284.72),
]

----------
Conditions: 298.15 K; 100.7 kPa; Liquid; Vibrating tube method
Numbers after ± are expanded uncertainties.
Reported mass density values for the following compounds.

# compound, mass density
data = [
    ("CCCCn1cc[n+](C)c1.F[P-](F)(F)(F)(F)F [1-butyl-3-methylimidazolium hexafluorophosphate]", "1366.26 ± 2.2 kg/m3"),
    ("C1CCOC1 [tetrahydrofuran]", "883.297 ± 1.6 kg/m3"),
    ("CCCCCCCC[n+]1ccn(C)c1.F[P-](F)(F)(F)(F)F [1-octyl-3-methylimidazolium hexafluorophosphate]", "1234.79 ± 2 kg/m3"),
    ("CCCCCCn1cc[n+](C)c1.F[P-](F)(F)(F)(F)F [1-hexyl-3-methylimidazolium hexafluorophosphate]", "1292.62 ± 2.1 kg/m3"),
]

----------
Settings: 318.15 K; 100.7 kPa; Liquid; Frequency=3 MHz; Sing-around technique in a fixed-path interferometer
observation.type: speed of sound (m/s)

# molecule, observation.type, unit.abbreviation, reported.value
data = [
    ("C1CCOC1 [tetrahydrofuran]", "speed of sound", "m/s", 1185.7),
    ("CCCCn1cc[n+](C)c1.F[P-](F)(F)(F)(F)F [1-butyl-3-methylimidazolium hexafluorophosphate]", "speed of sound", "m/s", 1395.2),
    ("CCCCCCCC[n+]1ccn(C)c1.F[P-](F)(F)(F)(F)F [1-octyl-3-methylimidazolium hexafluorophosphate]", "speed of sound", "m/s", 1351.2),
    ("CCCCCCn1cc[n+](C)c1.F[P-](F)(F)(F)(F)F [1-hexyl-3-methylimidazolium hexafluorophosphate]", "speed of sound", "m/s", 1375),
]
